biological target: Adrenergic receptor alpha-1 (Rattus norvegicus) (UniProt P15823+P23944+P43140); assay: Antagonist activity at alpha1 adrenergic receptor in Wistar rat aorta assessed as inhibition of naradrenaline-induced aortic contraction preincubated for 30 mins followed by naradrenaline stimulation for 3 hrs at 60 mins interval in presence of alpha2 adrenergic receptor blocker yohimbine and beta adrenergic receptor blocker propranolol
ENDPOINT: pKb

Cc1cccc(OCCN2CCN(c3ccccc3)CC2)c1C.Cl.Cl; 8.75
COc1ccccc1N1CCN(CCOCCOc2cccc(C)c2C)CC1.Cl.Cl; 8.76
Cc1cccc(OCCCN2CCN(c3ccccc3)CC2)c1C.Cl.Cl; 7.97
COc1ccccc1N1CCN(CCCCOc2c(C)cccc2C)CC1.Cl; 8.54
Cc1cccc(Cl)c1OCCCCN1CCN(c2ccccc2)CC1.Cl.Cl; 8.37
